Test: Single oral dose pharmacokinetic study in dogs, varying the testosterone dose (Example 1)
Assay type: in vivo, dogs (female beagles)
Conditions: female, beagle, dog, serum, dose 50 mg, single oral, time 2 h
MEASURED_QUANTITY: concentration at 2 h (ng/mL)
All answers are understood in ng/mL, so give the number only.

Query concentration at 2 h for "C[C@]12CC[C@H]3[C@@H](CCC4=CC(=O)CC[C@@]43C)[C@@H]1CC[C@@H]2O"
3.76

====

Assay: Single oral dose pharmacokinetic study in dogs, varying the testosterone dose (Example 1)
Assay type: in vivo, dogs (female beagles)
Settings: female, beagle, dog, serum, dose 50 mg, single oral, time 6 h
MEASURED_QUANTITY: concentration at 6 h

Query concentration at 6 h for C[C@]12CC[C@H]3[C@@H](CCC4=CC(=O)CC[C@@]43C)[C@@H]1CC[C@@H]2O [Testosterone, testosterone]
1.07 ng/mL
